# experimental target: Growth hormone secretagogue receptor type 1 (Homo sapiens, UniProt Q92847)
# Sequence (Q92847 whole entry): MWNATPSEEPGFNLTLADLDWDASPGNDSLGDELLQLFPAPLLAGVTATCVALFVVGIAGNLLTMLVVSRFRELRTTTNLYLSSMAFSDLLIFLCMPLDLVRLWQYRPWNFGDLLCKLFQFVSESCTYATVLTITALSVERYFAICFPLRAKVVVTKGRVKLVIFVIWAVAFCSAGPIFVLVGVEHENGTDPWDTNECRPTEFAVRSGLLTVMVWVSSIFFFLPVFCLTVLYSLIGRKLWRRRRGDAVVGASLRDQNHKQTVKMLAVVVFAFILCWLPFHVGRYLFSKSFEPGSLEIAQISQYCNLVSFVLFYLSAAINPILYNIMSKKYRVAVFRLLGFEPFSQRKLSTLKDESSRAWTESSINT
# protocol details: Antagonist activity at human GHSR1 expressed in CHO-CREluc cells after 4 hrs by Luciferase reporter assay
pIC50: −log10 of the molar value.
endpoint: pIC50

Reference set (2 entries):
compound="CCN1CCN(CC(=O)NC2(c3ccc(Cl)c(Cl)c3)C(=O)Nc3cc(Cl)cc(Cl)c32)CC1=O (single isomer, unassigned; (+))" endpoint=pIC50 result=5.56
compound="CCN1CCN(CC(=O)NC2(c3ccc(Cl)cc3)C(=O)Nc3cc(Cl)c(Cl)cc32)CC1 (racemic)" endpoint=pIC50 result=6.96

A. CN1CCN(CC(=O)NC2(c3ccc(Cl)cc3)C(=O)Nc3c(Cl)cc(Cl)cc32)CC1 (single isomer, unassigned; (+))
B. CN1CCN(CC(=O)NC2(c3ccc(Cl)c(Cl)c3)C(=O)Nc3cc(Cl)cc(Cl)c32)CC1 (single isomer, unassigned; (+))
C. CCN1CCN(CC(=O)NC2(c3ccc(Cl)c(Cl)c3)C(=O)Nc3cc(Cl)cc(Cl)c32)CC1 (single isomer, unassigned; (+))
D. Cc1cc2c(cc1Cl)NC(=O)C2(NC(=O)CN1CCN(C)CC1)c1ccc(Cl)cc1 (racemic)
// query In this exercise, place the 4 compounds in ascending sequence of their recorded pIC50. Write out the labels following the order that was asked for.
// result A, D, B, C
(A: 5.86, D: 6.67, B: 7.62, C: 8.15)

###

# protocol details: Drug metabolism in rat liver microsomes at 5 uM after 24 hrs
# Format: ADME, Microsome
# measurement setup: read-out: Drug metabolism
endpoint: metabolised at 24 h, 5 µM (%)
Hi! Could you send only the number? It should be in %, unit omitted.

// query I am curious: what metabolised at 24 h, 5 µM value has been reported for CCN1CCN(CC(=O)NC2(c3ccc(Cl)c(Cl)c3)C(=O)Nc3cc(Cl)cc(Cl)c32)CC1 (single isomer, unassigned; (+)) ?
// result 45

###

# experimental target: Growth hormone secretagogue receptor type 1 (Homo sapiens, UniProt Q92847)
# protocol details: Antagonist activity at human GHSR1 expressed in CHO-CREluc cells after 4 hrs by Luciferase reporter assay
pIC50: −log10 of the molar value.
endpoint: pIC50

compound="Cc1cc2c(cc1Cl)NC(=O)C2(NC(=O)CN1CCN(C)CC1)c1ccc(Cl)c(Cl)c1 (racemic)" result=6.66
compound="CN1CCN(CC(=O)NC2(c3ccc(Cl)cc3)C(=O)Nc3cc(Cl)cc(Cl)c32)CC1 (single isomer, unassigned; (+))" result=7.14
compound="CN(C)C1CCN(CC(=O)NC2(c3ccc(Cl)c(Cl)c3)C(=O)Nc3cc(Cl)cc(Cl)c32)CC1 (single isomer, unassigned; (+))" result=6.62
compound=CN1CCN(CC(=O)N[C@]2(c3ccc(Cl)cc3)C(=O)Nc3cc(Cl)c(Cl)cc32)CC1 result=7.33
compound="Cc1cc2c(cc1Cl)C(NC(=O)CN1CCN(C)CC1)(c1ccc(Cl)cc1)C(=O)N2 (single isomer, unassigned; (+))" result=6.60

I. Cc1cc2c(cc1Cl)NC(=O)C2(NC(=O)CN1CCN(C)CC1)c1cccc(Cl)c1 (racemic)
II. CCN1CCN(CC(=O)NC2(c3ccc(Cl)cc3)C(=O)Nc3cc(Cl)c(C)cc32)CC1 (racemic)
// query // pick min by pIC50: I , II When you have decided, please share the label of that item.
// result I
(I: 5.93, II: 6.89)

I. CN(C)[C@H]1CCN(CC(=O)NC2(c3ccc(Cl)c(Cl)c3)C(=O)Nc3cc(Cl)cc(Cl)c32)C1 (stereo not given in full)
II. CN1CCCN(CC(=O)NC2(c3ccc(Cl)c(Cl)c3)C(=O)Nc3cc(Cl)cc(Cl)c32)CC1 (single isomer, unassigned; (+))
III. Cc1ccc2c(c1Cl)C(NC(=O)CN1CCN(C)CC1)(c1ccc(Cl)cc1)C(=O)N2 (racemic)
IV. COc1ccc(C2(NC(=O)CN3CCN(C)CC3)C(=O)Nc3cc(Cl)c(C)cc32)cc1 (single isomer, unassigned; (+))
V. CC1CCN(CC(=O)NC2(c3ccc(Cl)cc3)C(=O)Nc3cc(Cl)c(Cl)cc32)CC1 (racemic)
// query Order by pIC50, ascending. Put the labels in the requested order and write them down.
// result V, III, IV, I, II

###

# protocol details: Permeability across human Caco2/TC7 cells compound transport
# Assay type: ADME, cell-based
# measurement setup: Caco-2, read-out: permeability
endpoint: Papp (×10⁻⁶ cm/s)
Output spec: scalar in ×10⁻⁶ cm/s, unitless text.

// query Please report the recorded Papp for CCN1CCN(CC(=O)NC2(c3ccc(Cl)c(Cl)c3)C(=O)Nc3cc(Cl)cc(Cl)c32)CC1 (single isomer, unassigned; (+)) .
// result 0.385

###

# experimental target: Growth hormone secretagogue receptor type 1 (Homo sapiens, UniProt Q92847)
# protocol details: Displacement of [125I]-ghrelin from human GHSR1 expressed in CHO-CREluc cells after 1 hr by scintillation counting
pKi: −log10 of the molar value.
endpoint: pKi

Here's what some known entries look like.
compound=CN1CCN(CC(=O)N[C@]2(c3ccc(Cl)cc3)C(=O)Nc3cc(Cl)c(Cl)cc32)CC1 experimental_target="Growth hormone secretagogue receptor type 1 (Homo sapiens, UniProt Q92847)" result=6.60
compound="CCN1CCN(CC(=O)NC2(c3ccc(Cl)cc3)C(=O)Nc3cc(Cl)c(Cl)cc32)CC1 (racemic)" experimental_target="Growth hormone secretagogue receptor type 1 (Homo sapiens, UniProt Q92847)" result=6.69
compound="Cc1cc2c(cc1Cl)NC(=O)C2(NC(=O)CN1CCN(C)CC1)c1ccc(Cl)cc1 (racemic)" experimental_target="Growth hormone secretagogue receptor type 1 (Homo sapiens, UniProt Q92847)" result=6.41

a. C=CCN1CCN(CC(=O)NC2(c3ccc(Cl)c(Cl)c3)C(=O)Nc3cc(Cl)cc(Cl)c32)CC1 (single isomer, unassigned; (+))
b. CCN1CCN(CC(=O)NC2(c3ccc(Cl)cc3)C(=O)Nc3cc(Cl)c(C)cc32)CC1 (racemic)
c. CN1CCN(CC(=O)NC2(c3ccc(Cl)cc3)C(=O)Nc3cc(Cl)cc(Cl)c32)CC1 (single isomer, unassigned; (+))
d. CCN1CCC(CC(=O)NC2(c3ccc(Cl)c(Cl)c3)C(=O)Nc3cc(Cl)cc(Cl)c32)CC1 (single isomer, unassigned; (+))
e. CCN1CCN(CC(=O)NC2(c3ccc(Cl)c(Cl)c3)C(=O)Nc3cc(Cl)cc(Cl)c32)CC1 (single isomer, unassigned; (+))
// query Please produce an ascending ranking of these compounds based on pKi. Your task in answering is to list the labels in the requested order.
// result b, a, c, e, d
(b: 6.54, a: 6.92, c: 7.36, e: 8.10, d: 8.52)

###

# System: P-glycoprotein
# protocol details: P-glycoprotein-mediated efflux ratio of the compound
# Format: ADME
# measurement setup: not told
endpoint: efflux ratio

I. CCN1CCN(CC(=O)NC2(c3ccc(Cl)c(Cl)c3)C(=O)Nc3cc(Cl)cc(Cl)c32)CC1 (single isomer, unassigned; (+))
II. CCN1CCC(CC(=O)NC2(c3ccc(Cl)c(Cl)c3)C(=O)Nc3cc(Cl)cc(Cl)c32)CC1 (single isomer, unassigned; (+))
// query Select one. Lower efflux ratio: I or II Identify your pick by its label.
// result I
(I: 6.6, II: 58)

###

The reader will find reported pIC50 values listed item by item below.
# experimental target: Growth hormone secretagogue receptor type 1 (Homo sapiens, UniProt Q92847)
# protocol details: Antagonist activity at human GHSR1 expressed in CHO-CREluc cells after 4 hrs by Luciferase reporter assay
pIC50: −log10 of the molar value.

molecule="Cc1cc2c(cc1Cl)NC(=O)C2(NC(=O)CN1CCNCC1)c1ccc(Cl)cc1 (racemic)" result="< 5.00"
molecule="Cc1cc2c(cc1Cl)NC(=O)C2(NC(=O)CN1CCN(c2ccncc2)CC1)c1ccc(Cl)cc1 (racemic)" result="< 5.00"
molecule="Cc1cc2c(cc1Cl)NC(=O)C2(NC(=O)CN1CCN(Cc2ccccc2)CC1)c1ccc(Cl)cc1 (racemic)" result="< 5.00"
molecule="CN1CCN(CC(=O)NC2(c3ccc(Cl)cc3)C(=O)Nc3cc(Cl)c(Cl)cc32)CC1 (single isomer, unassigned; (-))" result="< 5.00"
molecule="Cc1cc2c(cc1Cl)NC(=O)C2(NC(=O)CN1CCN(C)CC1)c1ccc(Cl)cc1Cl (racemic)" result="< 5.00"

Now for a further molecule.
// query Recorded pIC50 of CN(C)CCN(C)CC(=O)NC1(c2ccc(Cl)cc2)C(=O)Nc2cc(Cl)c(Cl)cc21 (racemic) , please.
// result < 5.00

###

# experimental target: Growth hormone secretagogue receptor type 1 (Homo sapiens)
# protocol details: Antagonist activity at human GHSR1 expressed in CHO-CREluc cells after 4 hrs by Luciferase reporter assay
pIC50: −log10 of the molar value.
endpoint: pIC50

molecule="CCN1CCCC(CC(=O)NC2(c3ccc(Cl)c(Cl)c3)C(=O)Nc3cc(Cl)cc(Cl)c32)C1 (single isomer, unassigned; (+))" experimental_target="Growth hormone secretagogue receptor type 1 (Homo sapiens)" endpoint=pIC50 result=7.33
molecule="C=CCN1CCN(CC(=O)NC2(c3ccc(Cl)c(Cl)c3)C(=O)Nc3cc(Cl)cc(Cl)c32)CC1 (single isomer, unassigned; (+))" experimental_target="Growth hormone secretagogue receptor type 1 (Homo sapiens)" endpoint=pIC50 result=7.42
